- TARGET: T1, human IL-11Rα (human, UniProt Q14626 23-363, limits assumed)
- T1 construct: Protein coated on ELISA plates and used in solution for BLI; also called hIL-11Rα; hIL-11R
- T1 sequence: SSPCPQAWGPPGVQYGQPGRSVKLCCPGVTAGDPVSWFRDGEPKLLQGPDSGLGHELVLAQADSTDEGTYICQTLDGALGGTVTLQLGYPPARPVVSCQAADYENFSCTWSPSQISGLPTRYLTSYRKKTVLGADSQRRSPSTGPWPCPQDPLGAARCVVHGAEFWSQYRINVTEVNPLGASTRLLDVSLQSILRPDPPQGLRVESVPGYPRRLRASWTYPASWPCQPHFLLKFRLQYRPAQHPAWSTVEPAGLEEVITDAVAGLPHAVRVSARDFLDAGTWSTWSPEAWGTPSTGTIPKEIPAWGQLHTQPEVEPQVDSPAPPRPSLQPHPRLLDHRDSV
- METHOD: BLI (Octet RED96e), mAb on protein G biosensors, hIL-11Rα in solution
RECORDED_METRIC: koff

Sample records with koff:
mAb6 (antibody, V domains shown, Expressed as human IgG4 (S228P EU)) VH: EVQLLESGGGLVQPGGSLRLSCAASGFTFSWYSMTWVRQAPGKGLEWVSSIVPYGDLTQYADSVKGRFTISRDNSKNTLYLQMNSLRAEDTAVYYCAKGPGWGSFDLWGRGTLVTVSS VL: DIQMTQSPSSLSASVGDRVTITCQASQDINNYLNWYQQKPGKAPKLLIYDASNLQTGVPSRFSGSGSGTDFTFTISSLQPEDIATYYCQQHEFQSPTFGPGTKVDIK; < 1e-07 s⁻¹
mAb13 (antibody, V domains shown, Expressed as human IgG4 (S228P EU)) VH: EVQLLESGGGLVQPGGSLRLSCAASGFTFSWYSMTWVRQAPGKGLEWVSSIVPYGDLTQYADSVKGRFTISRDNSKNTLYLQMNSLRAEDTAVYYCAKPEDWGRFDLWGRGTLVTVSS VL: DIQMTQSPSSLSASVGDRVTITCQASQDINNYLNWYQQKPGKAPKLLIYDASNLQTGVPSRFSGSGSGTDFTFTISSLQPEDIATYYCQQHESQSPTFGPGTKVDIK; < 1e-07 s⁻¹
mAb9 (antibody, V domains shown, Expressed as human IgG4 (S228P EU)) VH: EVQLLESGGGLVQPGGSLRLSCAASGFTFSWYSMTWVRQAPGKGLEWVSGIVPYGDLTQYADSVKGRFTISRDNSKNTLYLQMNSLRAEDTAVYYCAKGPGWGSFDLWGRGTLVTVSS VL: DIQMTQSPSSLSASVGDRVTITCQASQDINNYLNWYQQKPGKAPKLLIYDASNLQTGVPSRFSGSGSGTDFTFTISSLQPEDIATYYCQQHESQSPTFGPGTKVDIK; < 1e-07 s⁻¹
mAb8 (antibody, V domains shown, Expressed as human IgG4 (S228P EU)) VH: EVQLLESGGGLVQPGGSLRLSCAASGFTFSSYAMSWVRQAPGKGLEWVSSIVPYGDLTQYADSVKGRFTISRDNSKNTLYLQMNSLRAEDTAVYYCAKGPGWGSFDLWGRGTLVTVSS VL: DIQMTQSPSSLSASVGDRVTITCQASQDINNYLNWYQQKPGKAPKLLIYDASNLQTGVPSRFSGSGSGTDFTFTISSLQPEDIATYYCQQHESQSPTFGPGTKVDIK; < 1e-07 s⁻¹
mAb7 (antibody, V domains shown, Expressed as human IgG4 (S228P EU)) VH: EVQLLESGGGLVQPGGSLRLSCAASGFTFSNYAMSWVRQAPGKGLEWVSSIVPYGDLTQYADSVKGRFTISRDNSKNTLYLQMNSLRAEDTAVYYCAKGPGWGSFDLWGRGTLVTVSS VL: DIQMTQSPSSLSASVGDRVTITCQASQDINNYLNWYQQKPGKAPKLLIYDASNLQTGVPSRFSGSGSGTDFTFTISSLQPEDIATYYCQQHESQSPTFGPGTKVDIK; < 1e-07 s⁻¹
mAb14 (antibody, V domains shown, Expressed as human IgG4 (S228P EU)) VH: EVQLLESGGGLVQPGGSLRLSCAASGFTFSWYSMTWVRQAPGKGLEWVSSIVPYGDLTQYAESVKGRFTISRDNSKNTLYLQMNSLRAEDTAVYYCAKGPGWGSFDLWGRGTLVTVSS VL: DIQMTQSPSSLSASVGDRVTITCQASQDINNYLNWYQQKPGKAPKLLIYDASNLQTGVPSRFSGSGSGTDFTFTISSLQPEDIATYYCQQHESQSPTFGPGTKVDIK; < 1e-07 s⁻¹
mAb15 (antibody, V domains shown, Expressed as human IgG4 (S228P EU)) VH: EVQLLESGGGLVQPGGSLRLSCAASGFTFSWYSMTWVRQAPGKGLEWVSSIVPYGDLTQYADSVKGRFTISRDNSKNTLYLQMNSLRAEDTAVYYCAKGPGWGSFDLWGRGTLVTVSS VL: DIQMTQSPSSLSASVGDRVTITCQASQDINNYLNWYQQKPGKAPKLLIYDASNLQTGVPSRFSGSGSGTDFTFTISSLQPEDIATYYCQQHETQTPTFGPGTKVDIK; < 1e-07 s⁻¹
mAb5 (antibody, V domains shown, Expressed as human IgG4 (S228P EU); also called mAb5 IL11RA Ab) VH: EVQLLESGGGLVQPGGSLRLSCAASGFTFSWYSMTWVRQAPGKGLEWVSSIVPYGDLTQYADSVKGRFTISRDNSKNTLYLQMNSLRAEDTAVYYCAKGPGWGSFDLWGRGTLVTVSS VL: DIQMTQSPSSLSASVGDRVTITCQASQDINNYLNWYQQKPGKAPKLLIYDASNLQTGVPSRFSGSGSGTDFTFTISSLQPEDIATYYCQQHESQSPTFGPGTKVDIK; < 1e-07 s⁻¹

Dear reader, for each entry below, please note its koff.
1. mAb10 (antibody, V domains shown, Expressed as human IgG4 (S228P EU)) VH: EVQLLESGGGLVQPGGSLRLSCAASGFTFSWYSMTWVRQAPGKGLEWVSSIVAYGDLTQYADSVKGRFTISRDNSKNTLYLQMNSLRAEDTAVYYCAKGPGWGSFDLWGRGTLVTVSS VL: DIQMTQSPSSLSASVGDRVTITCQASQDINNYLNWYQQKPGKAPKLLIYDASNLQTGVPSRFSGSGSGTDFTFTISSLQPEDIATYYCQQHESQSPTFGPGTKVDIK
2. mAb12 (antibody, V domains shown, Expressed as human IgG4 (S228P EU)) VH: EVQLLESGGGLVQPGGSLRLSCAASGFTFSWYSMTWVRQAPGKGLEWVSSIVPYGDLTQYADSVKGRFTISRDNSKNTLYLQMNSLRAEDTAVYYCAKGPGWYSFDLWGRGTLVTVSS VL: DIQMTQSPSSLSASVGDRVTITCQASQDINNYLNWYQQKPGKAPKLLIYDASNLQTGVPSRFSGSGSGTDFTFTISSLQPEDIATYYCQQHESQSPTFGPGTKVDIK
3. mAb11 (antibody, V domains shown, Expressed as human IgG4 (S228P EU)) VH: EVQLLESGGGLVQPGGSLRLSCAASGFTFSWYSMTWVRQAPGKGLEWVSSIVDYGDLTQYADSVKGRFTISRDNSKNTLYLQMNSLRAEDTAVYYCAKGPGWGSFDLWGRGTLVTVSS VL: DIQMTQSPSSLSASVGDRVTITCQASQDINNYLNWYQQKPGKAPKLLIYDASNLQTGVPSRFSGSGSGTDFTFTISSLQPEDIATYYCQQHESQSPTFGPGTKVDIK

### Response
1: 0.000416 s⁻¹; 2: < 1e-07 s⁻¹; 3: 0.0181 s⁻¹
